Literature survey of IC50 (system: Receptor-type tyrosine-protein kinase FLT3 (Homo sapiens)).

A selection of reference data follows.
{"columns": ["Smiles record", "Recorded measurement"],
 "data": [
  ["Cc1[nH]c(/C=C2\\C(=O)Nc3cc(NC(=O)N4CCN(C5CC5)C4=O)ccc32)c(C)c1CCC(=O)O", "119 nM"],
  ["COC[C@H](C)Nc1ncc2c(N3CC4(COC4)CC3=O)cc([C@H]3CC[C@H](O)CC3)n2n1", "1000 to 10000 nM"],
  ["CCc1nc2c(N)ncc(-c3cnn(-c4ccnc(N5CCCC5)c4)c3)c2nc1N[C@@H]1CC[C@H](O)C1", "≤ 10 nM"]
]}

Consider the record given below.
Query block: Identify the measured IC50 of `COc1ncnc2[nH]cc(Cc3ccc(Nc4ccc(C)nc4)nc3F)c12` for Receptor-type tyrosine-protein kinase FLT3 (Homo sapiens).
Result block: < 1000 nM

###

pIC50 values for Receptor-type tyrosine-protein kinase FLT3 (Homo sapiens), compiled from several publications.
pIC50: −log10 of the molar value.

Examples with their reported pIC50 follow.
{"columns": ["Smiles record", "pIC50"],
 "data": [
  ["O=c1c2cc(Cl)ccc2sc2c(OCCO)nc3ccccc3c12", "< 6.00"],
  ["COC[C@H](C)Nc1ncc2c(-c3ccnc(N4CCC(C)(O)CC4)c3)cc([C@H]3CC[C@H](O)CC3)n2n1", "6.00 to 7.00"],
  ["Nc1cc(Oc2ccc(NC(=O)Nc3ccc(-c4ccncc4)c(C(F)(F)F)c3)cc2)ncn1", 7.12],
  ["CCc1nc2c(N)ncc(-c3cnn(-c4ccc(F)c(F)c4)c3)c2nc1N[C@@H]1CC[C@H](O)C1", "≥ 8.00"],
  ["NCCCNc1nc2ccccc2c2c(=O)c3cc(OC(F)(F)F)ccc3sc12", "< 6.00"]
]}

Query block: Give the reported pIC50 for `CCc1nc2c(N)ncc(-c3cnn(-c4cnc(C(C)(C)O)nc4)c3)c2nc1N[C@@H]1CC[C@@H](O)C1` (system: Receptor-type tyrosine-protein kinase FLT3 (Homo sapiens)).
Result block: ≥ 8.00

Query block: Quick check: pIC50 on Receptor-type tyrosine-protein kinase FLT3 (Homo sapiens), item `CCc1nc2c(N)ncc(-c3cnn(-c4cnc(C(C)(C)O)nc4)c3)c2nc1N[C@@H]1CC[C@H](O)C1` ?
Result block: ≥ 8.00

Query block: Form field - read-out: pIC50; system: Receptor-type tyrosine-protein kinase FLT3 (Homo sapiens); submitted item: `C[C@@H](COC(F)F)Nc1ncc2c(-c3ccc(CN4CCOCC4)cc3)cc([C@H]3CC[C@H](O)CC3)n2n1`
Result block: ≥ 7.00

###

# IC50 against Receptor-type tyrosine-protein kinase FLT3 (Homo sapiens, UniProt P36888), merged from multiple literature sources

Below are worked cases with known answers.
{"columns": ["Compound", "IC50"],
 "data": [
  ["Cc1cc(Nc2ncc(Cl)c(NC3CCN(c4ccc(C#N)nn4)CC3)n2)nn1C", "48 nM"],
  ["CN1CCN(c2ccc3nc(-c4c(N)c5sccc5[nH]c4=O)[nH]c3c2)CC1", "≤ 50 nM"],
  ["Clc1ccccc1CNc1ccc(Cc2c[nH]c3ncncc23)cn1", "≤ 10000 nM"],
  ["COC[C@H](C)Nc1ncc2c(-c3cnn(C(C)(C)c4ncc(C)o4)c3)cc(C3CCC(O)CC3)n2n1 (stereo partly drawn)", "1000 to 10000 nM"],
  ["CCC[C@@H](C)Nc1ncc2c(OC3CCNCC3)ncc([C@H]3CC[C@@H](O)CC3)c2n1", "100 to 1000 nM"]
]}

// switching to the query compound
Query block: Record `COC[C@H](C)Nc1ncc2c(-c3cnn(CC4CCOCC4)c3)cc([C@H]3CC[C@H](O)CC3)n2n1` : what is its IC50 with Receptor-type tyrosine-protein kinase FLT3 (Homo sapiens, UniProt P36888)?
Result block: ≤ 100 nM

###

pIC50: −log10 of the molar value.
Literature roundup of Receptor-type tyrosine-protein kinase FLT3 (Homo sapiens, UniProt P36888) data, read-out pIC50.

Reference set, count: 5
{"columns": ["Molecule", "pIC50"],
 "data": [
  ["COC[C@H](C)Nc1ncc2c(OC3CCOCC3)ncc(-c3ccc(CO)cc3)c2n1", "5.00 to 6.00"],
  ["CCCC(C)Nc1ncc2c(OC[C@H]3CC[C@H](O)CC3)ncc([C@H]3CC[C@H](O)CC3)c2n1 (stereo partly drawn)", "5.00 to 6.00"],
  ["COC[C@H](C)Nc1ncc2c(-c3ccnc(N4CCOC5(COC5)C4)c3)cc([C@H]3CC[C@H](O)CC3)n2n1", "6.00 to 7.00"],
  ["COCCn1cc(-c2cc([C@H]3CC[C@H](O)CC3)n3nc(N[C@@H](C)COC(F)F)ncc23)cn1", "≥ 7.00"],
  ["O=c1c2cc(F)ccc2sc2c(NCCCNCCO)nc3ccccc3c12", "6.30 to 6.70"]
]}

Then this molecule:
Query block: Quick check: pIC50 on Receptor-type tyrosine-protein kinase FLT3 (Homo sapiens, UniProt P36888), item `C[C@@H](CC(F)(F)F)Nc1ncc2c(O[C@H]3C[C@H](O)C3)ncc([C@H]3CC[C@H](O)CC3)c2n1` ?
Result block: 6.00 to 7.00

###

Receptor-type tyrosine-protein kinase FLT3 (Homo sapiens) IC50, compiled from various sources.

{"columns": ["Compound", "IC50"],
 "data": [
  ["COc1cc2c(Oc3ccc(NC(=O)c4c(C)n(C)c5ccc(OC(F)(F)F)cc5c4=O)cc3F)ncnc2cc1OCCN1CCCCC1", "0.0064 µM"],
  ["CC(C)(C)Nc1ncc2c(OC3CCNCC3)ncc([C@H]3CC[C@H](O)CC3)c2n1", "1 to 10 µM"],
  ["COc1cc(C2=C(c3cn(CCCNC(=O)C(N)CC(C)C)c4ccccc34)C(=O)NC2=O)cc(OC)c1OC (stereo not shown)", "≥ 1 µM"]
]}

Query block: Look up IC50 with Receptor-type tyrosine-protein kinase FLT3 (Homo sapiens) for this compound: `Nc1ccc(-c2n[nH]c3c2C(=O)c2sccc2-3)cc1`
Result block: < 0.1 µM

###

Please find below pIC50 data on Receptor-type tyrosine-protein kinase FLT3 (Homo sapiens, UniProt P36888) compiled from the literature.
pIC50: −log10 of the molar value.

Worked set:
{"columns": ["Compound", "Tested target", "pIC50"],
 "data": [
  ["O=C1Nc2cc(NC(=O)N3CCN(c4ccc(C(F)(F)F)cc4)C3=O)ccc2/C1=C/c1ccc[nH]1", "Receptor-type tyrosine-protein kinase FLT3 (Homo sapiens, UniProt P36888)", 6.30],
  ["COCCN1C(C)(C)CC(Oc2ncc([C@H]3CC[C@H](O)CC3)c3nc(N[C@@H](C)CCO)ncc23)CC1(C)C", "Receptor-type tyrosine-protein kinase FLT3 (Homo sapiens, UniProt P36888)", "5.00 to 6.00"]
]}

Query block: What is its pIC50 for Receptor-type tyrosine-protein kinase FLT3 (Homo sapiens, UniProt P36888)? Entry: `O=C1Nc2cc(NC(=O)N3CCN(c4ccccc4F)C3=O)ccc2/C1=C/c1ccc[nH]1`
Result block: < 5.00

Query block: Lab request: please report pIC50 under test system Receptor-type tyrosine-protein kinase FLT3 (Homo sapiens, UniProt P36888) for `O=C(O)[C@H]1CC[C@@H](Nc2ncc3c(OC4CCOCC4)ncc([C@H]4CC[C@H](O)CC4)c3n2)CC1`
Result block: 5.00 to 6.00

Query block: So what pIC50 did `COc1cc(/C=C/c2cc(/C=C/c3ccccc3)[nH]n2)ccc1O` get with Receptor-type tyrosine-protein kinase FLT3 (Homo sapiens, UniProt P36888)?
Result block: > 7.30

###

Across several publications, the following IC50 results were reported for Receptor-type tyrosine-protein kinase FLT3 (Homo sapiens).

Answered cases to consult:
{"columns": ["Molecule", "IC50"],
 "data": [
  ["CCCC(C)Nc1ncc2c(N3CCC(NC)CC3)ncc([C@H]3CC[C@H](O)CC3)c2n1 (some centres unmarked)", "1 to 10 µM"],
  ["Oc1ccc(/C=C/c2cc(-c3ccccc3)n[nH]2)cc1", "< 0.05 µM"],
  ["CN1CCN(c2ccc3nc(-c4c(N[C@@H]5CC[C@H](O)C5)c5ccsc5[nH]c4=O)[nH]c3c2)CC1 (relative stereo)", "≤ 0.05 µM"],
  ["COC[C@H](C)Nc1ncc2c(-c3ccc(N4CCN(C)CC4)nc3)cc([C@H]3CC[C@H](O)CC3)n2n1", "≤ 0.1 µM"],
  ["COC[C@H](C)Nc1ncc2c(-c3ccc4c(c3)NC(=O)C4)cc([C@H]3CC[C@H](O)CC3)n2n1", "0.1 to 1 µM"],
  ["Fc1ccc(Nc2ncc(Cc3c[nH]c4ncc(Cl)cc34)cn2)cc1", "< 0.1 µM"],
  ["CCc1nc2c(N)ncc(-c3cnn(C4COC4)c3)c2nc1N[C@@H]1CC[C@H](O)C1", "≤ 0.01 µM"],
  ["COC[C@H](C)Nc1ncc2c(-c3cnn(C[C@H]4CC(=O)N(C)C4)c3)cc([C@H]3CC[C@H](O)CC3)n2n1", "0.1 to 1 µM"],
  ["C[C@@H](CC(F)(F)F)Nc1ncc2c(OC3CC(C)(C)N(C)C(C)(C)C3)ncc([C@H]3CC[C@H](O)CC3)c2n1", "0.1 to 1 µM"],
  ["COC[C@H](C)Nc1ncc2c(-c3cnn(C(C)(C)C(=O)N4CCOCC4)c3)cc([C@H]3CC[C@](C)(O)CC3)n2n1", "0.1 to 1 µM"]
]}

Kindly review the next molecule as well.
Query block: I have this molecule here, `COC[C@H](C)Nc1ncc2c(-c3cnn(C(C)(C)c4nnc(C5CC5)o4)c3)cc([C@H]3CC[C@H](O)CC3)n2n1` , and I need its recorded IC50.
Result block: 0.1 to 1 µM
